# Tested on: MS2 coat protein
# Assay Explanation: apparent KD of MS2 coat protein; higher = weaker reporter binding
# Run Conditions: Eterna round: R107; input ligand: theophylline 2 mM
Measurement Kind: apparent KD of MS2 coat protein
Give the figure together with its unit, number first.

Problem: Recorded apparent KD of MS2 coat protein for AGUACAUGAGGAUCACCCAUGUAUCGGUACCGAGGACCGGUACGGCCGCCACUCGCAGGACAUGAGGAUCACCCAUGUGCCGCCG [SSTA DOUBLE!!! :-D #9] , please?
Solution: 0.0224 µM

Problem: Recorded apparent KD of MS2 coat protein for CACAUGAGGAUCACCCAUGUCUGAACUGAAGGAGCGCUAAACAAGGCAGGUAGGUCGCGGAAUUUUGUGUGCAUAUGCACACGGG [9.R] , please?
Solution: 0.0211 µM

Problem: Recorded apparent KD of MS2 coat protein for AAUAGCUUGAGGAUCACCCAAGUAAAAGAUACCAGAGUGAUGAUCCUCCCUUGGCAGCUUAACGCUGAUUGAUUACAAUCAGCGA , please?
Solution: 0.106 µM

Problem: Recorded apparent KD of MS2 coat protein for UUAAAGGCACCUCAUGGGACUAUAAACCCGCGAGGACCGGUACGGCCGCCACUCGAAUAUCAACAUGAGGAUCACCCAUGUGGUU [theeternabot_exclusion_MS2_Trp_A_6] , please?
Solution: 0.0296 µM

Problem: Recorded apparent KD of MS2 coat protein for ACCUACACGGAGACGUGUAGGAGUAAUGAUACCAGCAUGGAGACAUGCCCUUGGCAGCGUUACAUGAGGAUCACCCAUGUAGGUU [ETHA #4] , please?
Solution: 0.0788 µM

Problem: Recorded apparent KD of MS2 coat protein for AAUCGGAGAUGAAGGAGCGCGUACAUGAGGAUCACCCAUGUAUCAAAGCUUCUCCCGUGUAUGCAGGUAGGUCGCAUUUCCACGU [Ceriedan] , please?
Solution: 0.00918 µM

Problem: Recorded apparent KD of MS2 coat protein for GCGAUGGAGCGAAGGAGCGGCUGUGACUACAUGAGGAUCACCCAUGUACGAUCGUAAGGUAGCCAGGUAGGUCGCGCUCCAUCGC [SSAB NP+V+V2 #17] , please?
Solution: 0.0418 µM

Problem: Recorded apparent KD of MS2 coat protein for CCUAUGCAGUCGGCCGCCACUGAGUCCUCAAUAAUAAAUUAAUAUACAUGAGGAUCACCCAUGUACAGGACCGGGACUGUAUAGG [Ex Tryptophan B 13] , please?
Solution: 0.215 µM

Problem: Recorded apparent KD of MS2 coat protein for UACCCAUGAGUUGGAAAAGCUCAUGGGUAUCGAGGACCGGUACGGCCGCCACUCGGCUGUACAUGAGGAUCACCCAUGUCAGGGU [#1 Same State - Tryptophan A Attempt #24 (HarryS)] , please?
Solution: 0.721 µM

Problem: Recorded apparent KD of MS2 coat protein for UGUGGGCGCACGGCCGCCACUGUCUUCAUCUGUUUGUCUACAUGAGGAUCACCCAUGUUGGUUUACAGGACCGGGUGCAUCUAUG [SSTryp B #12] , please?
Solution: 0.0521 µM

Problem: Recorded apparent KD of MS2 coat protein for AACAUGAGGAUCACCCAUGUCGGGCCGGUGCGAGGACCGGUACGGCCGCCACUCGAGACAUGAGGAUCACCCAUGUUGUGCGUGA [Exclusion Tryptophan A GF23] , please?
Solution: 0.221 µM

Problem: Recorded apparent KD of MS2 coat protein for CAAUUUAGAAAACUAAAUUGAGUGGGUGAACGAGGACCGGUACGGCCGCCACUCGGACAUGAGGAUCACCCAUGUCCAUGUGAAA [AstrosExyTryA#23] , please?
Solution: 0.0166 µM
